FYI, the data here is from paper PMC9229919.

Assay: Reverse-phase thin-layer chromatographic lipophilicity (RF, RM0)
Assay type: physicochemical
Settings: RP-18 silica; VI = 65%MeOH/30%H2O/5%HCl
Protocol: Chromatographic determination of lipophilicity Merck, Darmstadt, Germany). The mobile phase contained organic modifier (methanol, acetone or dioxane), water and hydrochloric acid. Methanol was varied in the range […] with an increment of 10%. […] before chromatogram development. The solvent developing distance was 4.5 cm. Detection of […] All experiments were performed at ambient temperature (22±2 °C). Retention parameters were calculated as previously described. […]
// values below are reported RF, Methanol/Water/Hydrochloric acid (conc.), mobile phase VI
observable: RF, Methanol/Water/Hydrochloric acid (conc.), mobile phase VI

INSERT INTO assay_data (molecule, observed_result) VALUES
  ('CC(CCNCCC12CC3CC(CC(C3)C1)C2)Nc1ccnc2cc(Cl)ccc12 (stereo not shown) [Compound 14]', 0.25),
  ('Clc1ccc2c(Nc3cccc4c(NCCC56CC7CC(CC(C7)C5)C6)cccc34)ccnc2c1 [Compound 19]', 0.21),
  ('FC(F)(F)c1ccc2c(NCCNCC34CC5CC(CC(C5)C3)C4)ccnc2c1 [Compound 6]', 0.39),
  ('Clc1ccc2c(Nc3cccc(NCC45CC6CC(CC(C6)C4)C5)c3)ccnc2c1 [Compound 18]', 0.34);

====

Test: Reverse-phase thin-layer chromatographic lipophilicity (RF, RM0)
Format: physicochemical
Details: RP-18 silica; VI = 65%MeOH/30%H2O/5%HCl
Below: a set of entries, each annotated with reported RF, Methanol/Water/Hydrochloric acid (conc.), mobile phase VI.
observable: RF, Methanol/Water/Hydrochloric acid (conc.), mobile phase VI

INSERT INTO measurements (compound, observed_result) VALUES
  ('Clc1ccc2c(NCCCCNCC34CC5CC(CC(C5)C3)C4)ccnc2c1', 0.37),
  ('CC(CCNCCC12CC3CC(CC(C3)C1)C2)Nc1ccnc2ccccc12 (stereo not drawn)', 0.31),
  ('Clc1ccc2c(NCCCCCCCCNCC34CC5CC(CC(C5)C3)C4)ccnc2c1', 0.23),
  ('FC(F)(F)c1ccc2c(NCCCNCC34CC5CC(CC(C5)C3)C4)ccnc2c1', 0.36),
  ('Clc1ccc2c(NCCNCCC34CC5CC(CC(C5)C3)C4)ccnc2c1', 0.28),
  ('Clc1ccc2c(NCCCNCC34CC5CC(CC(C5)C3)C4)ccnc2c1', 0.43),
  ('Clc1ccc2c(NCCN(CCC34CC5CC(CC(C5)C3)C4)CCC34CC5CC(CC(C5)C3)C4)ccnc2c1', 0.01),
  ('Clc1ccc2c(NCCNCC34CC5CC(CC(C5)C3)C4)ccnc2c1', 0.43),
  ('Clc1ccc2c(NCCCCCCNCC34CC5CC(CC(C5)C3)C4)ccnc2c1', 0.31);

====

Target: purified human BChE (Homo sapiens, UniProt P06276)
Construct: possibly also a gift of Dr Florian Nachon (the sentence is ambiguous)
Sequence (P06276 29-602): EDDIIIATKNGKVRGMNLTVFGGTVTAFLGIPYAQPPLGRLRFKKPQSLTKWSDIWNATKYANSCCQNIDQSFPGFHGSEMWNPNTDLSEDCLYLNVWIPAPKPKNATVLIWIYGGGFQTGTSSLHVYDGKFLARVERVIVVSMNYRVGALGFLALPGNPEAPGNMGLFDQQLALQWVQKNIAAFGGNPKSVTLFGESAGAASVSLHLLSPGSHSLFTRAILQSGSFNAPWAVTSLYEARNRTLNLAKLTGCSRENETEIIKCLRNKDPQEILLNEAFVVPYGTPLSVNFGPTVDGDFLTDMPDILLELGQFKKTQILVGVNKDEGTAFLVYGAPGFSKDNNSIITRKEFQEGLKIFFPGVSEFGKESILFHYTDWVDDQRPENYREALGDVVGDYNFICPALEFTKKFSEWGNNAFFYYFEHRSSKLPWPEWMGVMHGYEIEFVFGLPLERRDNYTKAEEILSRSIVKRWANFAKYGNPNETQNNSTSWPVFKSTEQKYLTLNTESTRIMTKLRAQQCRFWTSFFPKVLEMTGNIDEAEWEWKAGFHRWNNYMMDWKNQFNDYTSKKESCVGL
Assay: biochemical
Type: biochemical
Details: logarithm of Ki in µM, BChE; dependent variable of the QSAR model; read-out: Y Measured 2 log(ki)Bche, log (Ki/µM BChE) (converted)
# label = fulfilled if Ki < 0.9 µM else not fulfilled

INSERT INTO results (molecule, target_under_test, cat) VALUES
  ('FC(F)(F)c1ccc2c(NCCNCC34CC5CC(CC(C5)C3)C4)ccnc2c1', 'purified human BChE (Homo sapiens, UniProt P06276)', 'not fulfilled'),
  ('Clc1ccc2c(NCCCCCCNCC34CC5CC(CC(C5)C3)C4)ccnc2c1', 'purified human BChE (Homo sapiens, UniProt P06276)', 'fulfilled'),
  ('Clc1ccc2c(NCCCN3CCN(CCCNCCC45CC6CC(CC(C6)C4)C5)CC3)ccnc2c1', 'purified human BChE (Homo sapiens, UniProt P06276)', 'not fulfilled'),
  ('CC(CCNCC12CC3CC(CC(C3)C1)C2)Nc1ccnc2cc(C(F)(F)F)ccc12 (centres unmarked)', 'purified human BChE (Homo sapiens, UniProt P06276)', 'not fulfilled'),
  ('CC(CCNCCC12CC3CC(CC(C3)C1)C2)Nc1ccnc2ccccc12 (centres unmarked)', 'purified human BChE (Homo sapiens, UniProt P06276)', 'fulfilled'),
  ('Clc1ccc2c(NCCN(CCC34CC5CC(CC(C5)C3)C4)CCC34CC5CC(CC(C5)C3)C4)ccnc2c1', 'purified human BChE (Homo sapiens, UniProt P06276)', 'not fulfilled');
